target.entity: UniProt:Q08345
experiment.description: DDR1 binding assay (LanthaScreen Europium Kinase Binding assay)
condition.summary: same binding assay; numeric values; read-out: DDR1 Ki
pKi: −log10 of the molar value.

{"compound": "Cc1ccc(C(=O)Nc2cncc(C(F)(F)F)c2)cc1NC1CN(C(=O)c2cnn3ccncc23)C1 [Compound C1, reference compound]", "pKi": 6.94}

* * *

target.entity: DDR2 (Homo sapiens (Human), UniProt Q16832)
Sequence (Q16832 22-855): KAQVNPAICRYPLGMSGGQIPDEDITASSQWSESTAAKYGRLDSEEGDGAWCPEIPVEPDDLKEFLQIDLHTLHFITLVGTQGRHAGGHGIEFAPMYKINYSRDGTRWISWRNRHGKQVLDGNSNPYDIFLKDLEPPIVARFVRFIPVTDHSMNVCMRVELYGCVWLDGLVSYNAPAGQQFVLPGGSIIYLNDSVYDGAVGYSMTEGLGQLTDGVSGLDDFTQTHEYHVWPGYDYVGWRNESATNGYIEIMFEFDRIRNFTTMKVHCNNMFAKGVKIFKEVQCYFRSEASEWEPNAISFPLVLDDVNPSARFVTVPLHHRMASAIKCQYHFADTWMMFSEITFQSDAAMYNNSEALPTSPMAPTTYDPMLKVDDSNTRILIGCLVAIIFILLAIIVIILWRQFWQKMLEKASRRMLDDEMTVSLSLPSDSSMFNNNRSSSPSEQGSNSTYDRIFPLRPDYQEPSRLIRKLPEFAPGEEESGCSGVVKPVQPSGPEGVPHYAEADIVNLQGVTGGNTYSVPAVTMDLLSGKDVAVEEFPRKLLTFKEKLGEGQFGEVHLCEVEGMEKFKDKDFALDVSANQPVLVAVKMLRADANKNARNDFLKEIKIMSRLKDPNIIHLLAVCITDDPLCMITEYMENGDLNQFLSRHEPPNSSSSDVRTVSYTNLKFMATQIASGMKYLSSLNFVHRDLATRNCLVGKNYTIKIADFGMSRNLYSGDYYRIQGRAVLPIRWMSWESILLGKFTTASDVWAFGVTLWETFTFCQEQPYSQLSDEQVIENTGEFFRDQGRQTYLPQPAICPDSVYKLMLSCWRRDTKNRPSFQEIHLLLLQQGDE
experiment.description: DDR2 binding assay (LanthaScreen Europium Kinase Binding assay)
condition.summary: 5 nM DDR2, 10 nM Kinase Tracer 178, 1 h at rt; Ki from IC50 by Cheng-Prusoff; read-out: Ki DDR2

{"compound": "Cc1ccc(C(=O)Nc2cc(C(F)(F)F)ccc2Cl)cc1OC1CN(c2cnn3ccncc23)C1", "Ki": "5 to 25 nM"}
{"compound": "Cc1ccc(C(=O)Nc2cncc(C(F)(F)F)c2)cc1C(C)C1CN(c2cnn3ccncc23)C1 (stereo not shown) [Example 172]", "Ki": "5 to 25 nM"}
{"compound": "CC(=O)Nc1cncc(N2CC(Oc3cc(C(=O)Nc4cncc(C(F)(F)F)c4)ccc3C)C2)c1", "Ki": "< 5 nM"}
{"compound": "COc1ccc(OC(F)(F)F)cc1NC(=O)c1ccc(C)c(OC2CN(c3cnn4ccncc34)C2)c1", "Ki": "5 to 25 nM"}
{"compound": "Cc1ccc(C(=O)Nc2cncc(C(F)(F)F)c2)cc1C(C)C1CN(c2cnn3ccncc23)C1 (stereo not shown) [Example 175]", "Ki": "5 to 25 nM"}
{"compound": "Cc1ccc(C(=O)Nc2cc(C(C)(C)C)n(C)n2)cc1NC1CN(c2cnn3ccncc23)C1", "Ki": "5 to 25 nM"}
{"compound": "CCc1cc(NC(=O)c2ccc(C)c(OC3CN(c4cnn5ccncc45)C3)c2)no1", "Ki": "25 to 100 nM"}
{"compound": "Cc1ccc(C(=O)Nc2cccc(CC(F)(F)F)c2)cc1OC1CN(c2cnn3ccncc23)C1", "Ki": "< 5 nM"}
{"compound": "Cc1ccc(C(=O)Nc2cc(C(C)(C)C)n(C)n2)cc1OC1CN(c2cnn3ccncc23)C1", "Ki": "< 5 nM"}
{"compound": "Cc1ccn2ncc(N3CC(Oc4cc(C(=O)Nc5cncc(C(F)(F)F)c5)ccc4C)C3)c2n1", "Ki": "5 to 25 nM"}
{"compound": "Cc1ccc(C(=O)Nc2cc(F)cc(C(F)(F)F)c2)cc1OC1CN(c2cnn3ccncc23)C1", "Ki": "< 5 nM"}
{"compound": "Cc1ccc(C(=O)Nc2cncc(C(F)(F)F)c2)cc1OC1CN(c2cnc3cnccn23)C1", "Ki": "< 5 nM"}
{"compound": "Cc1ccc(C(=O)Nc2cncc(C(F)(F)F)c2)cc1NC1CN(c2cnc3cnccn23)C1", "Ki": "< 5 nM"}
{"compound": "COc1ccc(C(=O)Nc2cncc(C(F)(F)F)c2)cc1NC1CN(c2cnn3ccncc23)C1", "Ki": "5 to 25 nM"}
{"compound": "Cc1ccc(C(=O)Nc2cncc(C(F)(F)F)c2)cc1C1CN(c2cnn3ccncc23)C1", "Ki": "5 to 25 nM"}
{"compound": "Cc1ccc(OC(F)(F)F)cc1NC(=O)c1ccc(C)c(OC2CN(c3cnn4ccncc34)C2)c1", "Ki": "5 to 25 nM"}
{"compound": "Cc1ccc(C(=O)Nc2cncc(C(F)(F)F)c2)cc1OC1CN(c2cncc3c2cnn3C)C1", "Ki": "5 to 25 nM"}
{"compound": "Cc1ccc(C(=O)Nc2cncc(C(F)(F)F)c2)cc1OC1CN(c2cnc3ccccn23)C1", "Ki": "< 5 nM"}
{"compound": "O=C(Nc1cncc(C(F)(F)F)c1)c1ccc(OC(F)F)c(NC2CN(c3cnn4ccncc34)C2)c1", "Ki": "5 to 25 nM"}
{"compound": "Cc1ccc(C(=O)Nc2cccc(OC(F)(F)F)c2)cc1OC1CN(c2cnn3ccncc23)C1", "Ki": "< 5 nM"}
{"compound": "Cc1ccc(C(=O)Nc2cncc(C(F)(F)F)c2)cc1C(C)C1CN(c2cnn3ccncc23)C1 (stereo not shown) [Example 176]", "Ki": "5 to 25 nM"}
{"compound": "Cc1ccc(C(=O)Nc2cncc(C(F)(F)F)c2)cc1OC1CN(c2cncc(-c3cnn(C)c3)c2)C1", "Ki": "< 5 nM"}
{"compound": "Cc1ccc(C(=O)Nc2cc(C(C)(C)C)no2)cc1NC1CN(c2cnn3ccncc23)C1", "Ki": "5 to 25 nM"}
{"compound": "Cc1ccc(C(=O)Nc2cncc(C(F)(F)F)c2)cc1OC1CN(c2cnn3cccnc23)C1", "Ki": "5 to 25 nM"}
{"compound": "Cc1ccc(C(=O)Nc2cncc(C(F)(F)F)c2)cc1NC1CN(c2cnn3ccncc23)C1", "Ki": "5 to 25 nM"}
{"compound": "Cc1ccc(C(=O)Nc2cncc(C(F)(F)F)c2)cc1OC1CN(c2cnn3ccc(N4CCOCC4)nc23)C1", "Ki": "5 to 25 nM"}
{"compound": "Cc1ccc(C(=O)Nc2cc(C(C)(C)C)nn2C)cc1OC1CN(c2cnn3ccncc23)C1", "Ki": "5 to 25 nM"}
{"compound": "Cc1ccc(C(=O)Nc2cncc(C(F)(F)F)c2)cc1OC1CN(c2cnn3ccccc23)C1", "Ki": "< 5 nM"}
{"compound": "Cc1ccc(C(=O)Nc2cncc(C(F)(F)F)c2)cc1NC1CN(c2cnn3cccnc23)C1", "Ki": "5 to 25 nM"}
{"compound": "Cc1ccc(C(=O)Nc2cc(C(C)(C)C)on2)cc1OC1CN(c2cnn3ccncc23)C1", "Ki": "< 5 nM"}
{"compound": "CC(=O)Nc1ccn2ncc(N3CC(Oc4cc(C(=O)Nc5cncc(C(F)(F)F)c5)ccc4C)C3)c2n1", "Ki": "5 to 25 nM"}

* * *

target.entity: DDR1 (Homo sapiens (Human), UniProt Q08345)
Sequence (Q08345 19-913): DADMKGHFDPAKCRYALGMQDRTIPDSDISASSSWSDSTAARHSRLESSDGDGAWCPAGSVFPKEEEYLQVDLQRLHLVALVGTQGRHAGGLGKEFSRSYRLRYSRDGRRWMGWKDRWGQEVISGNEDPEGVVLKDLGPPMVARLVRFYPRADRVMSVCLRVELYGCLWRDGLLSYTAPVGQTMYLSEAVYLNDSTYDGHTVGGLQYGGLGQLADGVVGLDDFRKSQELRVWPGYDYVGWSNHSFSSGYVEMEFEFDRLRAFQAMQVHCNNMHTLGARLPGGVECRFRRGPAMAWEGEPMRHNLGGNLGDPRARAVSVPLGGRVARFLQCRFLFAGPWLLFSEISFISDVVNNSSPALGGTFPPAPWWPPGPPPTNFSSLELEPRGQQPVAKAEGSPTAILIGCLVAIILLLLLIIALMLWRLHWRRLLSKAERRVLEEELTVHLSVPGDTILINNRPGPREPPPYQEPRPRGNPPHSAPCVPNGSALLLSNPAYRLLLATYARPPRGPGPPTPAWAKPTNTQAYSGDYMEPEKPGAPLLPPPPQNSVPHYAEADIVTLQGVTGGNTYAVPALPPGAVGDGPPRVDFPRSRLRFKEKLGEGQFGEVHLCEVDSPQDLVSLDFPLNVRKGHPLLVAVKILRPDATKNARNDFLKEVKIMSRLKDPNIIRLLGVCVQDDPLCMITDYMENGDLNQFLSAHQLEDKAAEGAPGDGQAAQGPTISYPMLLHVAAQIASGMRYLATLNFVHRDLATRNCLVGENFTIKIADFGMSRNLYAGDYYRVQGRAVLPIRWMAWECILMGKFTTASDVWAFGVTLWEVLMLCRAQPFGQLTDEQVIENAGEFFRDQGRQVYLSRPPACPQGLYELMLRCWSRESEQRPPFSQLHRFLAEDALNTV
experiment.description: DDR1 binding assay (LanthaScreen Europium Kinase Binding assay)
condition.summary: 5 nM DDR1, 20 nM Kinase Tracer 178, 1 h at rt; Ki from IC50 by Cheng-Prusoff; read-out: Ki DDR1

{"compound": "Cc1ccc(C(=O)Nc2cncc(C(F)(F)F)c2)cc1OC1CN(c2cnn3ccccc23)C1 [Example 168]", "target.entity": "DDR1 (Homo sapiens (Human), UniProt Q08345)", "Ki": "< 5 nM"}
{"compound": "Cc1ccn2ncc(N3CC(Oc4cc(C(=O)Nc5cncc(C(F)(F)F)c5)ccc4C)C3)c2n1 [Example 167]", "target.entity": "DDR1 (Homo sapiens (Human), UniProt Q08345)", "Ki": "< 5 nM"}
{"compound": "CCc1cc(NC(=O)c2ccc(C)c(OC3CN(c4cnn5ccncc45)C3)c2)no1 [Example 152]", "target.entity": "DDR1 (Homo sapiens (Human), UniProt Q08345)", "Ki": "5 to 25 nM"}
{"compound": "Cc1ccc(C(=O)Nc2cncc(C(F)(F)F)c2)cc1SC1CN(c2cnn3ccncc23)C1 [Example 178]", "target.entity": "DDR1 (Homo sapiens (Human), UniProt Q08345)", "Ki": "< 5 nM"}
{"compound": "Cc1ccc(C(=O)Nc2cncc(OC(F)(F)F)c2)cc1OC1CN(c2cnn3ccncc23)C1 [Example 157]", "target.entity": "DDR1 (Homo sapiens (Human), UniProt Q08345)", "Ki": "< 5 nM"}
{"compound": "Cc1ccc(C(=O)Nc2cncc(C(F)(F)F)c2)cc1NC1CN(c2cncnc2)C1 [Example 134]", "target.entity": "DDR1 (Homo sapiens (Human), UniProt Q08345)", "Ki": "5 to 25 nM"}
{"compound": "Cc1ccc(C(=O)Nc2cc(C(C)(C)C)n(C)n2)cc1NC1CN(c2cnn3ccncc23)C1 [Example 156]", "target.entity": "DDR1 (Homo sapiens (Human), UniProt Q08345)", "Ki": "< 5 nM"}
{"compound": "Cc1ccc(C(=O)Nc2cncc(C(F)(F)F)c2)cc1N(C)C1CN(c2cnn3ccncc23)C1 [Example 151]", "target.entity": "DDR1 (Homo sapiens (Human), UniProt Q08345)", "Ki": "< 5 nM"}
{"compound": "Cc1ccc(C(=O)Nc2cc(C(C)(C)C)on2)cc1OC1CN(c2cnn3ccncc23)C1 [Example 155]", "target.entity": "DDR1 (Homo sapiens (Human), UniProt Q08345)", "Ki": "< 5 nM"}
{"compound": "Cc1ccc(C(=O)Nc2cncc(C(F)(F)F)c2)cc1OC1CN(c2cnc3ccccn23)C1 [Example 137]", "target.entity": "DDR1 (Homo sapiens (Human), UniProt Q08345)", "Ki": "< 5 nM"}
{"compound": "Cc1ccc(C(=O)Nc2cc(F)cc(C(F)(F)F)c2)cc1OC1CN(c2cnn3ccncc23)C1 [Example 162]", "target.entity": "DDR1 (Homo sapiens (Human), UniProt Q08345)", "Ki": "< 5 nM"}
{"compound": "Cc1ccc(C(=O)Nc2cc(C(C)(C)C)nn2C)cc1OC1CN(c2cnn3ccncc23)C1 [Example 163]", "target.entity": "DDR1 (Homo sapiens (Human), UniProt Q08345)", "Ki": "5 to 25 nM"}
{"compound": "Cc1ccc(C(=O)Nc2cc(C(C)(C)C)n(C)n2)cc1OC1CN(c2cnn3ccncc23)C1 [Example 154]", "target.entity": "DDR1 (Homo sapiens (Human), UniProt Q08345)", "Ki": "< 5 nM"}
{"compound": "Cc1ccc(C(=O)Nc2cccc(OC(F)(F)F)c2)cc1OC1CN(c2cnn3ccncc23)C1 [Example 161]", "target.entity": "DDR1 (Homo sapiens (Human), UniProt Q08345)", "Ki": "< 5 nM"}
{"compound": "COc1ccc(C(F)(F)F)cc1NC(=O)c1ccc(C)c(OC2CN(c3cnn4ccncc34)C2)c1 [Example 153]", "target.entity": "DDR1 (Homo sapiens (Human), UniProt Q08345)", "Ki": "< 5 nM"}
{"compound": "CC(=O)Nc1ccn2ncc(N3CC(Oc4cc(C(=O)Nc5cncc(C(F)(F)F)c5)ccc4C)C3)c2n1 [Example 138]", "target.entity": "DDR1 (Homo sapiens (Human), UniProt Q08345)", "Ki": "< 5 nM"}

Reference for the values: patent US20260028328A1
